- Test system: spontaneous hypertensive rats (SHR)
- TEST: Antihypertensive effect in spontaneous hypertensive rats (SHR)
- Type: in vivo
- EXPERIMENTAL_SETUP: Rattus norvegicus, ip, 1 h, read-out: Antihypertensive eff. SHR, max eff. in % of 5 mg/kg ip, DAP, 5 mg/kg ip, diastolic pressure (DAP), max change within one hour

- COMPOUND: "O=C(c1ccc(F)cc1)C1CCN(CCn2c(=O)[nH]c3ccccc3c2=O)CC1 [Ketanserin, reference compound]"
  change in vivo at 5 mg/kg: "-24%"
- COMPOUND: "Fc1ccc([C@@H]2C[C@@H](N3CCN(CCN4CCNC4=S)CC3)c3cc(F)ccc32)cc1 (relative stereo) [compound 24]"
  change in vivo at 5 mg/kg: "-20%"
- COMPOUND: "CCN1CCN(CCN2CCN([C@@H]3C[C@@H](c4ccc(F)cc4)c4ccc(F)cc43)CC2)C1=O (relative stereo)"
  change in vivo at 5 mg/kg: "4%"
- COMPOUND: "O=C1NCCN1CCCN1CCN([C@@H]2C[C@@H](c3ccc(F)cc3)c3ccc(F)cc32)CC1 (relative stereo)"
  change in vivo at 5 mg/kg: "-19%"
- COMPOUND: "Fc1ccc([C@@H]2C[C@@H](N3CCN(CCN4CCNC4=S)CC3)c3cc(F)ccc32)cc1 (single isomer, unassigned) [+24]"
  change in vivo at 5 mg/kg: "-40%"
- COMPOUND: "O=C1NCCN1CCN1CCN([C@@H]2C[C@@H](c3ccc(F)cc3)c3ccc(F)cc32)CC1 (relative stereo)"
  change in vivo at 5 mg/kg: "-19%"

====

- System: methylphenidate induced stereotypies
- TEST: Methylphenidate Antagonism
- Format: in vivo, mice
- EXPERIMENTAL_SETUP: Mus musculus, ip, read-out: MePh antg. ED50, i.p., mice, 2 hours before methylphenidate 60 mg/kg s.c.
- Experimental: The experiments were made as described by Pedersen and Christensen (1972) Acta Pharmacol. et Toxicol. 31, 488-496.--Briefly, test compounds or saline were injected i.p. 2 hours before methylphenidate, 60 mg/kg s.c. 3 pairs of mice were used for each dose level. After methylphenidate injection the mice were placed in observation cages for one hour. The cages were placed on corrugated paper, the corrugation facing upwards.
The label label 1 is reserved for ED50 strictly under 30 µmol/kg; label 0 covers values equal to or above it.

- COMPOUND: "O=C1NCCN1CCN1CCN([C@@H]2C[C@@H](c3ccc(F)cc3)c3ccccc32)CC1 (relative stereo) [compound 1]"
  GROUP_LABEL: "label 0"
- COMPOUND: "CC(C)c1ccc2c(c1)[C@H](N1CCN(CCN3CCNC3=O)CC1)C[C@H]2c1ccc(F)cc1 (relative stereo)"
  GROUP_LABEL: "label 1"
- COMPOUND: "CCN1CCN(CCN2CCN([C@@H]3C[C@@H](c4ccc(F)cc4)c4ccc(F)cc43)CC2)C1=O (relative stereo)"
  GROUP_LABEL: "label 0"
- COMPOUND: "O=C(c1ccc(F)cc1)C1CCN(CCn2c(=O)[nH]c3ccccc3c2=O)CC1 [Ketanserin, reference compound]"
  GROUP_LABEL: "label 0"
- COMPOUND: "CSc1ccc2c(c1)[C@H](N1CCN(CCN3CCOC3=O)CC1)C[C@H]2c1ccc(F)cc1 (relative stereo)"
  GROUP_LABEL: "label 0"
- COMPOUND: "CN1CCN(CCN2CCN([C@@H]3C[C@@H](c4ccc(F)cc4)c4ccccc43)CC2)C1=O (relative stereo)"
  GROUP_LABEL: "label 0"
- COMPOUND: "O=C1NCCN1CCN1CCN([C@@H]2C[C@@H](c3ccc(F)cc3)c3ccc(F)cc32)CC1 (relative stereo) [compound 2]"
  GROUP_LABEL: "label 0"
- COMPOUND: "Cc1ccc2c(c1)[C@H](N1CCN(CCN3CCOC3=O)CC1)C[C@H]2c1ccc(F)cc1 (relative stereo)"
  GROUP_LABEL: "label 1"
- COMPOUND: "O=C1OCCN1CCCN1CCN([C@@H]2C[C@@H](c3ccc(F)cc3)c3ccc(F)cc32)CC1 (relative stereo)"
  GROUP_LABEL: "label 0"
- COMPOUND: "O=C1OCCN1CCN1CCN([C@@H]2C[C@@H](c3ccc(F)cc3)c3ccc(Cl)cc32)CC1 (relative stereo)"
  GROUP_LABEL: "label 1"
- COMPOUND: "Fc1ccc([C@@H]2C[C@@H](N3CCN(CCN4CCNC4=S)CC3)c3cc(F)ccc32)cc1 (relative stereo) [compound 24]"
  GROUP_LABEL: "label 1"
- COMPOUND: "O=c1[nH]c2ccccc2c(=O)n1CCN1CCN([C@H]2C[C@H](c3ccc(F)cc3)c3ccccc32)CC1 (relative stereo)"
  GROUP_LABEL: "label 0"
- COMPOUND: "Fc1ccc([C@@H]2C[C@@H](N3CCN(CCN4CCNC4=S)CC3)c3ccccc32)cc1 (relative stereo)"
  GROUP_LABEL: "label 0"
